Where do the numbers come from? From the kinase profiling compilation of Christmann-Franck et al. (2016).

# measured.target: PDGFRA (human)
# assay: radiometric filter-binding kinase assay, Kinase HotSpot
# measurement.parameters: compound 0.5 µM; ATP 10 µM
quantity.name: residual activity

> print(dat)
                              sample.smiles      quantity.name  measured.value
1  CCN(CC)C(=O)c1ccc(Nc2nc(OCC3CCCCC3)c3nc[nH]c3n2)cc1  residual activity           66.6%
2          O=c1cc(N2CCOCC2)oc2c1ccc1ccccc12  residual activity           83.9%
3  O=C(Nc1cccc(Nc2nccc(Nc3cccc(C(F)(F)F)c3)n2)c1)C1CC1  residual activity           89.3%
4  Oc1cccc(-c2nc(N3CCOCC3)c3oc4ncccc4c3n2)c1  residual activity           99.4%
5      c1ccc(-c2n[nH]cc2-c2ccnc3ccccc23)nc1  residual activity           98.1%
6       Cc1ccc(NC2=CC(=O)c3sc(C)nc3C2=O)cc1  residual activity           85.9%

* * *

Quick list: residual activity per entry.
# measured.target: SRPK2 (human) (UniProt P78362)
# Sequence (P78362 whole entry, looked up): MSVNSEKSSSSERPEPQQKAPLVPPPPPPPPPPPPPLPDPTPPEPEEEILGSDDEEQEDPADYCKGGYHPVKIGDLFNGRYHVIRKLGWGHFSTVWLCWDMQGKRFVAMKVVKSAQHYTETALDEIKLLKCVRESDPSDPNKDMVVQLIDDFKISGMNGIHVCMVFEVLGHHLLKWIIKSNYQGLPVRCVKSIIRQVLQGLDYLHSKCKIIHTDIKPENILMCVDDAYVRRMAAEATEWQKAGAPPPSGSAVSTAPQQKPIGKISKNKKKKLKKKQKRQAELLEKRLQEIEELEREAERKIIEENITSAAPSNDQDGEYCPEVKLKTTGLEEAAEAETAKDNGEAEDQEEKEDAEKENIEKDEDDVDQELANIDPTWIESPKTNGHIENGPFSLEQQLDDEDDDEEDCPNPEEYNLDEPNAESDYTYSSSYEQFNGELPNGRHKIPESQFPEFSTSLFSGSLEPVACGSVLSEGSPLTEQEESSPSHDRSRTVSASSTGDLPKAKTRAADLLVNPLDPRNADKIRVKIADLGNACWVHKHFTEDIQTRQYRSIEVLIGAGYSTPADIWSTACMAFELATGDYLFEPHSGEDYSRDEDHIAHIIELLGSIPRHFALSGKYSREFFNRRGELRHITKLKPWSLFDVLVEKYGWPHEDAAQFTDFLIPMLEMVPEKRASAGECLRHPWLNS
# assay: radiometric filter-binding kinase assay, Kinase HotSpot
# measurement.parameters: compound 0.5 µM; ATP 10 µM
quantity.name: residual activity

> print(dat)
                               sample.smiles      quantity.name  measured.value
 1  Oc1cccc(-c2nc(N3CCOCC3)c3oc4ncccc4c3n2)c1  residual activity           97.3%
 2              Cc1ccc(S(=O)(=O)/C=C/C#N)cc1  residual activity            108%
 3  O=C1Nc2ccc(Cl)cc2/C1=C/c1cc(Cl)c(O)c(Cl)c1  residual activity           95.2%
 4  O=C1NC(=O)/C(=C/c2ccc3c(c2)OC(F)(F)O3)S1  residual activity            105%
 5  CCN(CC)C(=O)c1ccc(Nc2nc(OCC3CCCCC3)c3nc[nH]c3n2)cc1  residual activity           87.8%
 6           CNc1cc2c(Nc3cccc(Br)c3)ncnc2cn1  residual activity           89.4%
 7     CCC(=O)Nc1ccc2ncnc(Nc3cccc(Br)c3)c2c1  residual activity           88.6%
 8   COc1ccc(COc2ccc(Cc3cnc(N)nc3N)cc2OC)cc1  residual activity           87.4%
 9  Cc1[nH]c(/C=C2\C(=O)Nc3ccc(S(=O)(=O)N(C)c4cccc(Cl)c4)cc32)c(C)c1C(=O)N1CCN(C)CC1  residual activity           60.5%
10  Nc1cccc(-c2cc3c(Oc4cccc(O)c4)ncnc3[nH]2)c1  residual activity           99.1%
11  CCN(CC)CCNC(=O)c1c(C)[nH]c(/C=C2\C(=O)Nc3ccc(Cl)cc32)c1C  residual activity           93.7%

* * *

# measured.target: SRMS (human)
# assay: radiometric filter-binding kinase assay, Kinase HotSpot
# measurement.parameters: compound 0.5 µM; ATP 10 µM
quantity.name: residual activity (%)

> print(dat)
                               sample.smiles  measured.target      quantity.name  measured.value
 1  CCN(CC)C(=O)c1ccc(Nc2nc(OCC3CCCCC3)c3nc[nH]c3n2)cc1     SRMS (human)  residual activity            84.7
 2  O=C1NC(=O)c2c1c1c3ccccc3n3c1c1c2c2ccccc2n1C1CCC3O1     SRMS (human)  residual activity             105
 3          c1ccc(-c2n[nH]c3c2oc2ccccc23)cc1     SRMS (human)  residual activity            99.5
 4           CNc1cc2c(Nc3cccc(Br)c3)ncnc2cn1     SRMS (human)  residual activity             100
 5      c1ccc(-c2n[nH]cc2-c2ccnc3ccccc23)nc1     SRMS (human)  residual activity             105
 6  Nc1ncnc2c1c(-c1ccc(Oc3ccccc3)cc1)cn2C1CCCC1     SRMS (human)  residual activity            14.2
 7          O=c1cc(N2CCOCC2)oc2c1ccc1ccccc12     SRMS (human)  residual activity            97.1
 8       N#CC(C#N)=C(N)/C(C#N)=C/c1ccc(O)cc1     SRMS (human)  residual activity             107
 9  O=C1NC(=O)/C(=C/c2ccc3c(c2)OC(F)(F)O3)S1     SRMS (human)  residual activity             103
10  O=C(Nc1cccc(Nc2nccc(Nc3cccc(C(F)(F)F)c3)n2)c1)C1CC1     SRMS (human)  residual activity            95.5
11  Cc1[nH]c(/C=C2\C(=O)Nc3ccc(S(=O)(=O)N(C)c4cccc(Cl)c4)cc32)c(C)c1C(=O)N1CCN(C)CC1     SRMS (human)  residual activity             104
12           Nc1ncnc2[nH]nc(Nc3ccc(F)cc3)c12     SRMS (human)  residual activity             104
13   COc1ccc(COc2ccc(Cc3cnc(N)nc3N)cc2OC)cc1     SRMS (human)  residual activity            95.9
14  O=C1Nc2ccc(Cl)cc2/C1=C/c1cc(Cl)c(O)c(Cl)c1     SRMS (human)  residual activity            86.3
15  COc1ccc2c(c[n+](C)c3c4cc5c(cc4ccc23)OCO5)c1OC     SRMS (human)  residual activity              86
16  CC[n+]1c(/C=C/N(C)c2ccccc2)n(-c2ccccc2)c2ccc(-c3nc4ccccc4s3)cc21     SRMS (human)  residual activity            93.7

* * *

Quick list: residual activity per entry.
# measured.target: MAP2K1 (human) (UniProt Q02750)
# Sequence (Q02750 whole entry, looked up): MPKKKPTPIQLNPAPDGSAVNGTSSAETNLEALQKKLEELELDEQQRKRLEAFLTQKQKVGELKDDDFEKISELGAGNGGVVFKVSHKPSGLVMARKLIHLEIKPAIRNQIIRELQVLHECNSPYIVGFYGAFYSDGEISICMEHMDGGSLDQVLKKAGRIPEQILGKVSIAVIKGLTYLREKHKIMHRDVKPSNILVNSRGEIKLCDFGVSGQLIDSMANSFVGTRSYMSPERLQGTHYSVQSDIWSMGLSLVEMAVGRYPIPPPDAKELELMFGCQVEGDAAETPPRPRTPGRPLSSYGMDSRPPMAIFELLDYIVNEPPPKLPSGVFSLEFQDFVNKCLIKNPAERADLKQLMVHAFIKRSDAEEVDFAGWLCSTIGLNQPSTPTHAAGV
# assay: radiometric filter-binding kinase assay, Kinase HotSpot
# measurement.parameters: compound 0.5 µM; ATP 10 µM
quantity.name: residual activity (%)

> print(dat)
                              sample.smiles      quantity.name  measure.unit  measured.value
1       N#CC(C#N)=C(N)/C(C#N)=C/c1ccc(O)cc1  residual activity             %            93.7
2  CCCC(=O)Oc1ccc2[nH]c(C(=O)c3cc4ccccc4[nH]3)cc2c1  residual activity             %            99.9
3  CC#CC(=O)Nc1cc2c(Nc3ccc(F)c(Cl)c3)ncnc2cn1  residual activity             %            95.3
4  Cc1[nH]c(/C=C2\C(=O)Nc3ccc(S(=O)(=O)N(C)c4cccc(Cl)c4)cc32)c(C)c1C(=O)N1CCN(C)CC1  residual activity             %            89.3
5              Cc1ccc(S(=O)(=O)/C=C/C#N)cc1  residual activity             %            93.9

* * *

# measured.target: UniProt:P08631
# Sequence (P08631 whole entry, looked up): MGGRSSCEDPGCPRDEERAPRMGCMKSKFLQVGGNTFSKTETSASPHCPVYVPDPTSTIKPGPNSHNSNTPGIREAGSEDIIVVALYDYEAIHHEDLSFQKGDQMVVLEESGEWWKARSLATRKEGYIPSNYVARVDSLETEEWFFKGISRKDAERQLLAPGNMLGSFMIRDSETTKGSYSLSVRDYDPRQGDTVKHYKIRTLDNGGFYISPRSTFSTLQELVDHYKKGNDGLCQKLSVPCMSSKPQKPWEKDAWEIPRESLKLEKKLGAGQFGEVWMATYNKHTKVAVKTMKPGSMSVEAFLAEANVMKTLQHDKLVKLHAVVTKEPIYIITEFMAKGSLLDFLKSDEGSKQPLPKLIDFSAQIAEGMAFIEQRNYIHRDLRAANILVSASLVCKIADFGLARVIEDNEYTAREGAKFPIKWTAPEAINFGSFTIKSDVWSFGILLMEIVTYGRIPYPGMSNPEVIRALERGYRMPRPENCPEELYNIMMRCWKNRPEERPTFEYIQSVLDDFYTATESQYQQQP
# assay: radiometric filter-binding kinase assay, Kinase HotSpot
# measurement.parameters: compound 0.5 µM; ATP 10 µM
quantity.name: residual activity (%)

> print(dat)
                              sample.smiles  measured.value
1                 CC(=O)c1ccc(N2CCOCC2)cc1O             116
2  CCN(CC)C(=O)c1ccc(Nc2nc(OCC3CCCCC3)c3nc[nH]c3n2)cc1            63.1
3     CCC(=O)Nc1ccc2ncnc(Nc3cccc(Br)c3)c2c1              93
4          O=c1cc(N2CCOCC2)oc2c1ccc1ccccc12             114
5    CC(C)N(CCC(=O)c1ccc2ccccc2c1)Cc1ccccc1            94.9
6  CC[n+]1c(/C=C/N(C)c2ccccc2)n(-c2ccccc2)c2ccc(-c3nc4ccccc4s3)cc21             104

* * *

# measured.target: CDK3 CCNE1 (human) (UniProt Q00526+P24864)
# Sequence (P24864 whole entry, looked up): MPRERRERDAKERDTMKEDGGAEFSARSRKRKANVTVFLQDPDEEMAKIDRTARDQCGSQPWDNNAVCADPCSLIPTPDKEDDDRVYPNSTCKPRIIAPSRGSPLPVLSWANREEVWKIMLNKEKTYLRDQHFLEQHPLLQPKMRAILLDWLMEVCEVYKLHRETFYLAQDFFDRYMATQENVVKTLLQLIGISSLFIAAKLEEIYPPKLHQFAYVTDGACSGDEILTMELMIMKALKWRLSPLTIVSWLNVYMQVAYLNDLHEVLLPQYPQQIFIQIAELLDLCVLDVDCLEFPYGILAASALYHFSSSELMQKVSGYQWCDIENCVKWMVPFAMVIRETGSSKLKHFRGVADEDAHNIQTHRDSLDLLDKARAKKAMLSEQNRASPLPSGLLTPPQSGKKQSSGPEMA
# Sequence (Q00526 whole entry, looked up): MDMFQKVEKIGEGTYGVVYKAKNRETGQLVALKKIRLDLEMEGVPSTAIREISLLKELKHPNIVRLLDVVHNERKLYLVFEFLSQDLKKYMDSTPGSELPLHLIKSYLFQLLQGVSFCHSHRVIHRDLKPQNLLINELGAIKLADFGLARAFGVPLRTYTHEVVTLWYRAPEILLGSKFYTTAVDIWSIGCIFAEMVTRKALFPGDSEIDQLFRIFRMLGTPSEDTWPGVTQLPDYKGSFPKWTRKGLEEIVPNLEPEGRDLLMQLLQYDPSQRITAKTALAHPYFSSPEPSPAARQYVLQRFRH
# assay: radiometric filter-binding kinase assay, Kinase HotSpot
# measurement.parameters: compound 0.5 µM; ATP 10 µM
Quick list: residual activity per entry.
quantity.name: residual activity (%)

> print(dat)
                               sample.smiles                           measured.target  measured.value
 1         COc1cc2ncnc(Nc3cccc(Cl)c3)c2cc1OC  CDK3 CCNE1 (human) (UniProt Q00526+P24864)            95.2
 2              Cc1ccc(S(=O)(=O)/C=C/C#N)cc1  CDK3 CCNE1 (human) (UniProt Q00526+P24864)            99.7
 3  Nc1cccc(-c2cc3c(Oc4cccc(O)c4)ncnc3[nH]2)c1  CDK3 CCNE1 (human) (UniProt Q00526+P24864)            82.3
 4  Cc1nc(Nc2ncc(C(=O)Nc3c(C)cccc3Cl)s2)cc(N2CCN(CCO)CC2)n1  CDK3 CCNE1 (human) (UniProt Q00526+P24864)            91.7
 5  Nc1ncnc2c1c(-c1ccc(Oc3ccccc3)cc1)cn2C1CCCC1  CDK3 CCNE1 (human) (UniProt Q00526+P24864)            92.6
 6          O=S(=O)(c1cccc2cnccc12)N1CCCNCC1  CDK3 CCNE1 (human) (UniProt Q00526+P24864)            76.6
 7  O=C1NC(=O)/C(=C/c2ccc3c(c2)OC(F)(F)O3)S1  CDK3 CCNE1 (human) (UniProt Q00526+P24864)            99.4
 8       N#CC(C#N)=C(N)/C(C#N)=C/c1ccc(O)cc1  CDK3 CCNE1 (human) (UniProt Q00526+P24864)            96.8
 9           CNc1cc2c(Nc3cccc(Br)c3)ncnc2cn1  CDK3 CCNE1 (human) (UniProt Q00526+P24864)            80.2
10  O=C1Nc2ccc(Cl)cc2/C1=C/c1cc(Cl)c(O)c(Cl)c1  CDK3 CCNE1 (human) (UniProt Q00526+P24864)            85.4
11  CCCC(=O)Oc1ccc2[nH]c(C(=O)c3cc4ccccc4[nH]3)cc2c1  CDK3 CCNE1 (human) (UniProt Q00526+P24864)            88.2
